Taken from patent US20020169157A1.

# TESTED_TARGET: UniProt:P17706
# Sequence (P17706 1-283): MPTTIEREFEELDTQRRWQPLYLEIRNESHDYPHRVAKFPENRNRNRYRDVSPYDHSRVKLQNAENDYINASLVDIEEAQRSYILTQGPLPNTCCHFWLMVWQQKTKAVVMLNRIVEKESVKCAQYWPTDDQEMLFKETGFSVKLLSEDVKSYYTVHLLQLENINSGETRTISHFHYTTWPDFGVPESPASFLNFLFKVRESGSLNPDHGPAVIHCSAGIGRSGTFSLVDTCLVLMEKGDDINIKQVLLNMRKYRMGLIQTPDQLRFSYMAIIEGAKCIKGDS
QUANTITY_MEASURED: pKi
pKi is a log-scale quantity: -log10 of the concentration expressed in molar.

pKi for UniProt:P17706 with input `CCc1cc(C[C@H](NC(C)=O)C(=O)NCCCCOc2cccc(O)c2C(=O)OC)ccc1N(C(=O)C(=O)O)c1ccccc1C(=O)O` equals 6.24

Note to self: pKi of CCC(CN(C(=O)C(=O)O)c1ccc(C[C@H](NC(=O)OC(C)(C)C)C(=O)NCCCCOc2cccc(O)c2C(=O)OC)cc1)C(=O)O (some centres unmarked) with UniProt:P17706 was 5.10

---

Hi there, I'd appreciate the recorded Ki for every entry that follows.
# TESTED_TARGET: LAR (Homo sapiens, UniProt P10586)
# Sequence (P10586 1301-1639 limits assumed): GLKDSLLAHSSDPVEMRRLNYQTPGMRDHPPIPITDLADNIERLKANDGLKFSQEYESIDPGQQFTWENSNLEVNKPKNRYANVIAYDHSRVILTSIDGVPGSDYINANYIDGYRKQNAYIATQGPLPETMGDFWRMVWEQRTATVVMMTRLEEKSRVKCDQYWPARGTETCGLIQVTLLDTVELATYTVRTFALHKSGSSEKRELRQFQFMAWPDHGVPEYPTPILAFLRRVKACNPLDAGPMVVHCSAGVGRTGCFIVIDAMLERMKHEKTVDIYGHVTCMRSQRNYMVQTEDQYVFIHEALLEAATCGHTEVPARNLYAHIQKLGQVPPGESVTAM
# EXPERIMENT_SUMMARY: Inhibition constant determination, selectivity panel: LAR (pNPP hydrolysis)
# RUN_CONDITIONS: competitive Ki, pNPP substrate; read-out: Phosphatase Inhibition Constants (Kic) LAR
The answer is to be given in µM; state only the numeric part.

Ki reported for this molecule `CCc1cc(C[C@H](NC(C)=O)C(=O)NCCCCC(=O)N[C@@H](CCSC)C(=O)O)ccc1N(C(=O)C(=O)O)c1ccccc1C(=O)O` : 5

GET /value?item= `CCc1cc(C[C@H](NC(C)=O)C(=O)NCCCCOc2cccc(O)c2C(=O)OC)ccc1N(C(=O)C(=O)O)c1ccccc1C(=O)O` &field=Ki returns 4.6

---

# TESTED_TARGET: SHP-2 (full length) (Homo sapiens, UniProt Q06124)
# Sequence (Q06124 1-593): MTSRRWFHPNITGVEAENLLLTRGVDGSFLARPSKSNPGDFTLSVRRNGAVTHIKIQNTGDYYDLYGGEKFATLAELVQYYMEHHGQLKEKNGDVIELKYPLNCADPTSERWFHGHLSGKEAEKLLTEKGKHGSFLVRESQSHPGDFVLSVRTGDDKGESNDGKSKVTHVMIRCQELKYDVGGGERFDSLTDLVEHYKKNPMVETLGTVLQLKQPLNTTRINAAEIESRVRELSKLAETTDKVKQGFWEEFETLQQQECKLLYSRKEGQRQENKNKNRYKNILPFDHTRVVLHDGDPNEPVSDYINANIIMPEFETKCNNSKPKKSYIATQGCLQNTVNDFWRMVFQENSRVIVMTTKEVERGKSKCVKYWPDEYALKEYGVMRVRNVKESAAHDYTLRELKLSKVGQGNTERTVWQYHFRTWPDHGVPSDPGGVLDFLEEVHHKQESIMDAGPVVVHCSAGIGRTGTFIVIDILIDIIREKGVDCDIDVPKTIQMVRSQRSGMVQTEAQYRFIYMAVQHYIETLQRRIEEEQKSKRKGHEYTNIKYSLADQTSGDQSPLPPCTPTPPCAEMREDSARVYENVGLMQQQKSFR
QUANTITY_MEASURED: pKi
Give only the number. pKi is defined as minus log10 of concentration in molar units.

Summary line: CCc1cc(C[C@H](NC(C)=O)C(=O)NCCCCOc2cccc(O)c2C(=O)OC)ccc1N(C(=O)C(=O)O)c1ccccc1C(=O)O [Example 13] , SHP-2 (full length) (Homo sapiens, UniProt Q06124), reported pKi = 4.85

Lab entry: SHP-2 (full length) (Homo sapiens, UniProt Q06124) assay, compound CCc1cc(C[C@H](NC(C)=O)C(=O)NCCCCC(=O)N[C@@H](CCSC)C(=O)O)ccc1N(C(=O)C(=O)O)c1ccccc1C(=O)O [Example 3] , pKi = 4.77

---

Let's go through some pKi measurements on protein tyrosine phosphatase 1B (PTP1B, amino acid residues 1-321) (Homo sapiens) together.
Sequence (P18031 1-321): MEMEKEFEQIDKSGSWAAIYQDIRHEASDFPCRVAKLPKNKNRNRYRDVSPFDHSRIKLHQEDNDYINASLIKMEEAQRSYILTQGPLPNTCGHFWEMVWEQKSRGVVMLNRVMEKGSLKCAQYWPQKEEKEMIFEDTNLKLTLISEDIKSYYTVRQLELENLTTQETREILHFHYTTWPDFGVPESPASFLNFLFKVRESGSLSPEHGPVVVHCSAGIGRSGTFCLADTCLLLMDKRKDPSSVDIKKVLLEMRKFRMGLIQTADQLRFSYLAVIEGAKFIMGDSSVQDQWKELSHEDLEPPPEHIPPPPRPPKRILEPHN
Just the number, please; pKi means minus log10 of the concentration in mol/L.

For this molecule ( CCC(CN(C(=O)C(=O)O)c1ccc(C[C@H](NC(=O)OC(C)(C)C)C(=O)NCCCCOc2cccc(O)c2C(=O)OC)cc1)C(=O)O (some centres unmarked) ), measured pKi is 5.89

The molecule `COC(=O)c1c(O)cccc1OCCCCNC(=O)CCc1ccc(NC(=O)C(=O)O)c(C(=O)O)c1` showed pKi equal to 5.57
